- STUDY_TARGET: NfGlck
- PROTOCOL_DETAILS: coupled glucokinase assay, absorbance at […] nm
- Type: biochemical, Naegleria fowleri
- CONDITION_CONTEXT: pH 7.4, MgCl2
MEASURE: IC50

{"COMPOUND_STRING": "COc1cccc(-c2cc(C(=O)O)c(NC(=O)c3ccc(C(C)(C)C)cc3)cc2Cl)c1", "MEASURE": "IC50", "RESULT": "> 10 µM"}
{"COMPOUND_STRING": "CC(C)(C)c1ccc(C(=O)Nc2cc(Cl)c(-c3cccc(Cl)c3)cc2C(=O)O)cc1", "MEASURE": "IC50", "RESULT": "6.5 µM"}
{"COMPOUND_STRING": "CC(C)(C)c1ccc(C(=O)Nc2cc(Cl)c(-c3ccc(Cl)c(Cl)c3)cc2C(=O)O)cc1", "MEASURE": "IC50", "RESULT": "2.9 µM"}
{"COMPOUND_STRING": "CC(C)(C)c1ccc(C(=O)Nc2cc(Cl)c(-c3ccccc3)cc2C(=O)O)cc1", "MEASURE": "IC50", "RESULT": "> 10 µM"}
{"COMPOUND_STRING": "CC(C)(C)c1ccc(C(=O)Nc2cc(Cl)c(-c3cccc(F)c3)cc2C(=O)O)cc1", "MEASURE": "IC50", "RESULT": "> 10 µM"}
{"COMPOUND_STRING": "CC(C)(C)c1ccc(C(=O)Nc2cc(Cl)c(C3CC3)cc2C(=O)O)cc1", "MEASURE": "IC50", "RESULT": "> 10 µM"}
{"COMPOUND_STRING": "Cc1ccccc1-c1cc(C(=O)O)c(NC(=O)c2ccc(C(C)(C)C)cc2)cc1Cl", "MEASURE": "IC50", "RESULT": "> 10 µM"}
{"COMPOUND_STRING": "COc1ccccc1-c1cc(C(=O)O)c(NC(=O)c2ccc(C(C)(C)C)cc2)cc1Cl", "MEASURE": "IC50", "RESULT": "> 10 µM"}

Ask | Give the reported value of IC50 for this record: CC(C)(C)c1ccc(C(=O)Nc2cc(Cl)c(-c3ccc(F)c(Cl)c3)cc2C(=O)O)cc1
Reply | 5.9 µM

Ask | Give the reported value of IC50 for this record: O=c1c2ccccc2sn1-c1ccccc1
Reply | > 10 µM
